# MEASUREMENT_PROTOCOL: Half life of the compound after 30 min by UV-spectrophotometric analysis in presence of 4-(4-nitrobenzyl)pyridine
# Assay type: physicochemical
ASSAY_ENDPOINT: half-life

# CPD_SMILES, RESULT
data = [
    ("O=C(c1ccc[n+](Cc2ccccc2)c1)N(CCCl)CCCl.[Br-]", "14.7 min"),
    ("O=C(c1ccc[n+](Cc2ccc([N+](=O)[O-])cc2)c1)N(CCCl)CCCl.[Br-]", "8.4 min"),
]

Data origin, for the record: ChEMBL document CHEMBL3046664
